Form field: inhibition in vivo at 100 mg/kg (one value per entry).
- Test system: rat
- test.name: Localised carrageenan-induced oedema
- Assay type: in vivo
- test.conditions: 100 mg/kg oral at -1 h, 0 h, +2.5 h, 1 h after carrageenan, read-out: Pourcentage d'activité anti-inflammatoire 1ère heure
Field format: number, assumed %, no unit text.

[[record]]
structure = "O=C(NCCc1ccccc1)c1cc2sccc2cn1"
measurement_kind = "inhibition in vivo at 100 mg/kg"
data_value = 38

[[record]]
structure = "O=C(NCc1ccccc1)c1cc2ccsc2cn1"
measurement_kind = "inhibition in vivo at 100 mg/kg"
data_value = 34


Problem: Under rat: inhibition in vivo at 100 mg/kg value of `COc1ccccc1N1CCN(C(=O)c2cc3ccsc3cn2)CC1` ?
Result: 38

Problem: What is its inhibition in vivo at 100 mg/kg for rat? Entry: `O=C(NCc1ccncc1)c1cc2sccc2cn1`
Result: 41

Problem: Quick check: inhibition in vivo at 100 mg/kg on rat, item `CNC(=O)c1cc2sccc2cn1` ?
Result: 35

Problem: // fetch rat inhibition in vivo at 100 mg/kg for `O=C(c1cc2sccc2cn1)N1CCCC1`
Result: 37
